Exercise: state measured herbicidal effect STEME for each of the compounds provided.
# Test system: Stellaria media (STEME)
# experiment summary: Herbicidal post-emergence action (B), 1280 g/ha
# Format: in vivo
Kindly answer with a numeric value in %, unit omitted.

**Q:** What value of herbicidal effect STEME has been reported for the following compound? CCc1cc2scnc2nc1-c1ccccc1C(F)(F)F
**A:** 90

**Q:** What value of herbicidal effect STEME has been reported for the following compound? Cc1cc2scnc2nc1-c1cccc(F)c1
**A:** 100

**Q:** What value of herbicidal effect STEME has been reported for the following compound? CCc1cc2sc(OC)nc2nc1-c1ccccc1C
**A:** 100

**Q:** What value of herbicidal effect STEME has been reported for the following compound? Cc1cc2scnc2nc1-c1scnc1C
**A:** 90

**Q:** What value of herbicidal effect STEME has been reported for the following compound? Cc1c(Br)c(-c2ccccc2F)nc2ncsc12
**A:** 90

**Q:** What value of herbicidal effect STEME has been reported for the following compound? CC(C)c1cc2scnc2nc1-c1ccccc1F
**A:** 90

**Q:** What value of herbicidal effect STEME has been reported for the following compound? Fc1ccccc1-c1nc2ncsc2cc1C1CC1
**A:** 100

**Q:** What value of herbicidal effect STEME has been reported for the following compound? Fc1cccc(-c2nc3ncsc3cc2Cl)c1
**A:** 90

**Q:** What value of herbicidal effect STEME has been reported for the following compound? N#CCc1nc2nc(-c3ccccc3F)c(Br)cc2s1
**A:** 90

**Q:** What value of herbicidal effect STEME has been reported for the following compound? CCc1cc2scnc2nc1-c1ccccc1F
**A:** 100

**Q:** What value of herbicidal effect STEME has been reported for the following compound? CCc1cc2scnc2nc1-c1ccccc1
**A:** 100
